- test_method_notes: P. aeruginosa biofilm formation inhibitors, primary screen, PAO1 strain, BacTiter-Glo luminescence, LB-PBS (AID 1144)
- experimental_conditions: 12 h, higher = more signal
Response key: T means z-score >= 0.1; F means z-score < 0.1.

compound	answer_label
CO[C@@H]1COC(=O)[C@H](C)NC(=O)[C@@H](C)COC(=O)CCC[C@H]1C	F
CC(=O)OC[C@H]1O[C@H](CCON=C(C)CCN2CCc3nc(-c4ccccc4)c(-c4ccccc4)cc3C2)C=C[C@@H]1OC(C)=O	T
CN(C)c1ccc(C(O)C2C=CC3C(=O)N(c4ccccc4)C(=O)C3N2Nc2ccccc2F)cc1 (configuration not stated)	T

Is it the case that COC(=O)[C@@]1(Cc2ccc(F)cc2)[C@H]2c3cc(C(=O)N(C)C)n(Cc4ccc(OC)c(OC)c4)c3C[C@H]2CN1C(=O)c1ccccc1 has z-score reaching or exceeding 0.1?
F

Is it the case that CC(C)CON=C1C[C@@H](O)[C@@H](O)[C@@H]2[C@@H]3C(=O)N(C[C@@H]4CCCO4)C(=O)[C@@H]3CC[C@H]12 has z-score reaching or exceeding 0.1?
T

Is it the case that CCOC(=O)CCN1C(=O)[C@H]2[C@H]3[C@H](O)[C@H](O)CC(=NOC[C@@H](O)COCc4ccco4)[C@H]3CC[C@H]2C1=O has z-score reaching or exceeding 0.1?
F

Is it the case that O=C1[C@H]2[C@H]3[C@H](O)[C@H](O)CC(=NOC[C@@H](O)COCc4ccco4)[C@H]3CC[C@H]2C(=O)N1c1cccc(Oc2ccccc2)c1 has z-score reaching or exceeding 0.1?
F
